Test system: HOP-92
Test: NCI tumour cell line growth inhibition, 48 h
The source made the active and inactive calls. Cut-off read from the data, not from the text of the source: active = GI50 up to about 1.1 µM and inactive = higher.
observation type: GI50

CCc1ccccc1NC(=O)C1=C(C)NC(C)=C(C(=O)Nc2c(CC)cccc2CC)C1c1ccc2c(c1)OCO2 (configuration not stated)    12.7 µM (inactive)
Cc1ccc(Nc2c(C#N)[n+]([O-])c3cc(Cl)ccc3[n+]2[O-])cc1    > 100 µM (inactive)
N#CC1(C#N)C(C#N)(C#N)C1(C#N)C(N)=O    > 100 µM (inactive)
O=C(N/N=C/c1ccccc1)c1c(F)c(F)c(F)c(F)c1F    79.6 µM (inactive)
COC(=O)C1Cc2c(C)cccc2C1=O (configuration not stated)    > 100 µM (inactive)

IN: // query GI50 value for entry O=C(O)C(CO)NC(=O)n1c2ccccc2c2ccccc21 (configuration not stated)
OUT: > 100 µM (inactive)

IN: // query GI50 value for entry "COc1cc(/C=N/N=C(\N)NO)ccc1O"
OUT: > 100 µM (inactive)
